# test.target: Phosphodiesterase 4 (Homo sapiens, UniProt P27815+Q08499+Q07343+Q08493)
# assay.overview: Inhibition of human PDE4 after 30 mins
# Type: protein assay
property.name: IC50 (µM)

>>> df
                                   compound                               test_target  result_value
0  O=C(CCc1ccccc1)c1ccc(OC(F)F)c(OC2CCOC2)c1 (stereo not given)  Phosphodiesterase 4 (Homo sapiens, UniProt P27815+Q08499+Q07343+Q08493)          0.18
1       CCCC(=O)c1ccc(OC(F)F)c(OC2CCOCC2)c1  Phosphodiesterase 4 (Homo sapiens, UniProt P27815+Q08499+Q07343+Q08493)          0.35
2     CC(C)CC(=O)c1ccc(OC(F)F)c(OC2CCCC2)c1  Phosphodiesterase 4 (Homo sapiens, UniProt P27815+Q08499+Q07343+Q08493)         0.022
3           CCCC(=O)c1ccc(OC2CCOCC2)c(OC)c1  Phosphodiesterase 4 (Homo sapiens, UniProt P27815+Q08499+Q07343+Q08493)            60
4          CCCCC(=O)c1ccc(OC2CCOCC2)c(OC)c1  Phosphodiesterase 4 (Homo sapiens, UniProt P27815+Q08499+Q07343+Q08493)            71
5  COc1ccc(C(=O)CCC2CCCCC2)cc1OC1CCOC1 (stereo not given)  Phosphodiesterase 4 (Homo sapiens, UniProt P27815+Q08499+Q07343+Q08493)           1.9
6  CCCC(=O)c1ccc(OC2CCOC2)c(OC)c1 (stereo not given)  Phosphodiesterase 4 (Homo sapiens, UniProt P27815+Q08499+Q07343+Q08493)            24

I = CCCC(=O)c1ccc(OC2CCN(C(=O)OC(C)(C)C)CC2)c(OC)c1
II = COc1ccc(C(=O)CC2CCCCC2)cc1OC1CCOC1 (stereo not given)
III = CCCC(O)(C(=O)c1ccc(OC(F)F)c(Oc2ccccn2)c1)c1cnc2ccccc2c1 (stereo not given)
Ask: Could you please order the items by IC50, going from the lowest number to the highest? The response must list the labels following the requested ordering.
Result: II, III, I
